STUDY_TARGET: T1, GIRK1/4 inward-rectifier K+ channel, P63251
T1 chain 1: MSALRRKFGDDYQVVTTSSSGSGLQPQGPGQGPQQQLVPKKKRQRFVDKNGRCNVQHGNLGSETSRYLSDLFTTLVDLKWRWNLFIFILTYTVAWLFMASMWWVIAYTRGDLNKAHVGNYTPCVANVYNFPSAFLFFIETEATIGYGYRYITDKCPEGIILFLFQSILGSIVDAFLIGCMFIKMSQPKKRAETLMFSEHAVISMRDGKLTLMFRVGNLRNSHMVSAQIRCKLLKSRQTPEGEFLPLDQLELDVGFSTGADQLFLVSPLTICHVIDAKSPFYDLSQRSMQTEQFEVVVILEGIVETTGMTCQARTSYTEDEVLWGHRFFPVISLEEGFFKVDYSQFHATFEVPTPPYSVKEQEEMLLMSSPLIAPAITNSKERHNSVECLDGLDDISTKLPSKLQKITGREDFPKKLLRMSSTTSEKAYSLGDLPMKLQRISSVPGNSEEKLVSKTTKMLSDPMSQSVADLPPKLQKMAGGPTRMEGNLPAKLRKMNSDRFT
T1 chain 2: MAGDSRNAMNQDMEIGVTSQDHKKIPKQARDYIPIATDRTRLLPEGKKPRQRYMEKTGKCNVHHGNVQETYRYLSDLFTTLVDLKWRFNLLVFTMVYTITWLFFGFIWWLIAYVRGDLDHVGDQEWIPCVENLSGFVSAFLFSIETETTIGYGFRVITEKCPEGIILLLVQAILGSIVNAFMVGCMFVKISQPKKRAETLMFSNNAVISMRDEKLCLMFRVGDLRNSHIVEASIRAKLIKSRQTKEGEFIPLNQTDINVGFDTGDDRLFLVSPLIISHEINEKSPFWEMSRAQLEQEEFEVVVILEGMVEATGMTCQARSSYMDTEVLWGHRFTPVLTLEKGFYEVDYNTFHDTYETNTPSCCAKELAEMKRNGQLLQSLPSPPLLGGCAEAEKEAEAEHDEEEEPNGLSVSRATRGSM
QUANTITY_NAME: Kd (nM)
A number alone suffices; assume nM.

*Q* Which Kd is reported for this binder? ALCNCNRIIIPHMCWKKCGKK (modifications not checked) [synthetic tertiapin]
*A* 8
